assay: DRUGMATRIX: ATPase, Na+/K+ enzyme inhibition (substrate: ATP); format: tissue-based, Sus scrofa, Heart; conditions: Not Active = under 50% inhibition at 10 µM
Parameter Measured: IC50

>>> reading("CC1=C(CC(=O)O)c2cc(F)ccc2/C1=C\\c1ccc([S+](C)[O-])cc1 (stereo not drawn)")
"Not Active"
>>> reading("COc1ccc2c(c1)c(CC(=O)O)c(C)n2C(=O)c1ccc(Cl)cc1")
"Not Active"
>>> reading("CC[C@]1(O)C[C@@H]2CN(CCc3c([nH]c4ccccc34)[C@@](C(=O)OC)(c3cc4c(cc3OC)N(C)[C@H]3[C@@](O)(C(=O)OC)[C@H](OC(C)=O)[C@]5(CC)C=CCN6CC[C@]43[C@@H]65)C2)C1")
"Not Active"

====

Ki overview
molecular target: 5-hydroxytryptamine receptor 1B (Rattus norvegicus, UniProt P28564); assay type: cell membranes, Wistar, Cerebral cortex, Membrane; details: read-out: Ki; note: in other assays of this panel Not Active means under 50% inhibition at 10 µM
Sequence (P28564 whole entry): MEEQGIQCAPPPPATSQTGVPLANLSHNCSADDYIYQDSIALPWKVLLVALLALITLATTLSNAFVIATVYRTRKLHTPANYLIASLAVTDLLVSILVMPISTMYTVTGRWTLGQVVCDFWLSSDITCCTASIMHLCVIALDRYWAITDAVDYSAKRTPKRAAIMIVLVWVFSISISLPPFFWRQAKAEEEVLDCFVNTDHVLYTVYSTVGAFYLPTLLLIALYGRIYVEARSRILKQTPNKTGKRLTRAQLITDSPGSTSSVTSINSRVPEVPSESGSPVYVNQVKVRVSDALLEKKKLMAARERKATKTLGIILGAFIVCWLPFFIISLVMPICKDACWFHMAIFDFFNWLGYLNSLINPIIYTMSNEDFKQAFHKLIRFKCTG
Write the number in µM without appending the unit.

Here are 3 compounds together with their reported answers.
>>> reading("CN1CCC(=C2c3ccccc3C=Cc3ccccc32)CC1 [CYPROHEPTADINE]")
1.26
>>> reading("COc1cccc2c1C(=O)c1c(O)c3c(c(O)c1C2=O)C[C@@](O)(C(=O)CO)C[C@@H]3O[C@H]1C[C@H](N)[C@H](O)[C@H](C)O1 [DOXORUBICIN]")
15.7
>>> reading("O=C(c1ccc(OCCN2CCCCC2)cc1)c1c(-c2ccc(O)cc2)sc2cc(O)ccc12 [RALOXIFENE]")
0.846

GET /values?item= CC(=O)N1CCN(c2ccc(OCC3COC(Cn4ccnc4)(c4ccc(Cl)cc4Cl)O3)cc2)CC1 (centres undefined) [KETOCONAZOLE] &system= 5-hydroxytryptamine receptor 1B (Rattus norvegicus, UniProt P28564) returns Ki: 6.15

====

biological target: C-C chemokine receptor type 5 (Homo sapiens, UniProt P51681); assay type: cell membranes, HEK293, Membrane; conditions: read-out: Ki; note: in other assays of this panel Not Active means under 50% inhibition at 10 µM
Sequence (P51681 whole entry): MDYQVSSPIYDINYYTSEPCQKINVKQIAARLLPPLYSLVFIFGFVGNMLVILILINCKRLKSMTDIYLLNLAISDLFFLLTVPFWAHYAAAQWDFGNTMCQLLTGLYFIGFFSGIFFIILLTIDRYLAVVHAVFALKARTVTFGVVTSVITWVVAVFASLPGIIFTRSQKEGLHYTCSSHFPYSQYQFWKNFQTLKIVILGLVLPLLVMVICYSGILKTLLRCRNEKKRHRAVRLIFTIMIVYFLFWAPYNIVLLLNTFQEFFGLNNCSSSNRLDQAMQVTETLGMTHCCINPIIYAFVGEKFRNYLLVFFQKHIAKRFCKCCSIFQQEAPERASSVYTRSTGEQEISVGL
Parameter Measured: Ki (nM)
Write the number in nM without appending the unit.

GET /values?item= CC(C)(C)c1ccc(C(O)CCCN2CCC(C(O)(c3ccccc3)c3ccccc3)CC2)cc1 (stereo unspecified) [TERFENADINE] &system= C-C chemokine receptor type 5 (Homo sapiens, UniProt P51681) returns Ki: 852

====

assay: DRUGMATRIX: ATPase, Na+/K+ enzyme inhibition (substrate: ATP); format: tissue-based, Sus scrofa, Heart; settings: Not Active = under 50% inhibition at 10 µM
Parameter Measured: IC50

Here are 8 compounds together with their reported answers.
>>> reading("CCOC(=O)C(C)(C)Oc1ccc(Cl)cc1 [CLOFIBRATE]")
"Not Active"
>>> reading("NC(=O)c1cnccn1 [PYRAZINAMIDE]")
"Not Active"
>>> reading("CC[C@@H](CO)NCCN[C@@H](CC)CO")
"Not Active"
>>> reading("CC(C)Cc1ccc(C(C)C(=O)O)cc1 (centres undefined)")
"Not Active"
>>> reading("N=C(N)NC(=O)c1nc(Cl)c(N)nc1N [AMILORIDE]")
"Not Active"
>>> reading("COCCCOc1ccnc(C[S+]([O-])c2nc3ccccc3[nH]2)c1C (centres undefined)")
"Not Active"
>>> reading("C/C=C/C[C@@H](C)[C@@H](O)[C@H]1C(=O)N[C@@H](CC)C(=O)N(C)CC(=O)N(C)[C@@H](CC(C)C)C(=O)N[C@@H](C(C)C)C(=O)N(C)[C@@H](CC(C)C)C(=O)N[C@@H](C)C(=O)N[C@H](C)C(=O)N(C)[C@@H](CC(C)C)C(=O)N(C)[C@@H](CC(C)C)C(=O)N(C)[C@@H](C(C)C)C(=O)N1C")
"Not Active"
>>> reading("COc1cccc2c1C(=O)c1c(O)c3c(c(O)c1C2=O)C[C@@](O)(C(=O)CO)C[C@@H]3O[C@H]1C[C@H](N)[C@H](O)[C@H](C)O1")
"Not Active"

// moving on: another record for IC50
Form: compound = "O=C(N[C@H](CO)[C@H](O)c1ccc([N+](=O)[O-])cc1)C(Cl)Cl" ; IC50 = Not Active

====

Observed pIC50, system Cytochrome P450 2C9 (Homo sapiens, UniProt P11712). Note: in other assays of this panel Not Active means under 50% inhibition at 10 µM.
For clarity, pIC50 is expressed as the negative log10 of concentration in mol/L.

Here are 2 molecules together with their reported answers.
>>> reading("COc1ccccc1C(=O)N1CCC(Cc2ccccc2)CC1")
5.70
>>> reading("CCOC(=O)C1=C(C)NC(C)=C(C(=O)OC)C1c1cccc([N+](=O)[O-])c1 (stereo not drawn)")
6.52

GET /values?item= "Cc1ccccc1C(=O)N1CCC(Cc2ccccc2)CC1" &system= Cytochrome P450 2C9 (Homo sapiens, UniProt P11712) returns pIC50: 6.00

====

assay: DRUGMATRIX: Calcium Channel Type L, Benzothiazepine radioligand binding (ligand: [3H] Diltiazem); format: cell membranes, Rattus norvegicus, Wistar, Brain, Membrane; conditions: Not Active = under 50% inhibition at 10 µM
Parameter Measured: IC50

Here are 10 molecules together with their reported answers.
>>> reading("CC(C(=O)O)c1cccc(C(=O)c2ccccc2)c1 (stereo not given) [KETOPROFEN]")
"Not Active"
>>> reading("NC(=O)c1cnccn1 [PYRAZINAMIDE]")
"Not Active"
>>> reading("S=C=Nc1cccc2ccccc12 [1-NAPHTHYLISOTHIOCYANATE]")
"Not Active"
>>> reading("CCOC(=O)[C@H](CCc1ccccc1)N[C@H]1CCc2ccccc2N(CC(=O)O)C1=O [BENAZEPRIL]")
"Not Active"
>>> reading("COc1ccc2cc([C@H](C)C(=O)O)ccc2c1 [NAPROXEN]")
"Not Active"
>>> reading("N=C(N)NC(=O)c1nc(Cl)c(N)nc1N [AMILORIDE]")
"Not Active"
>>> reading("Cc1cc(C)nc(NS(=O)(=O)c2ccc(N)cc2)n1 [SULFAMETHAZINE]")
"Not Active"
>>> reading("C[C@]1(Cn2ccnn2)[C@H](C(=O)O)N2C(=O)C[C@H]2S1(=O)=O [TAZOBACTAM]")
"Not Active"
>>> reading("COc1cccc2c1C(=O)c1c(O)c3c(c(O)c1C2=O)C[C@@](O)(C(=O)CO)C[C@@H]3O[C@H]1C[C@H](N)[C@@H](O)[C@H](C)O1 [EPIRUBICIN]")
"Not Active"
>>> reading("CC1=C(C(=O)O)N2C(=O)[C@@H](NC(=O)[C@H](N)c3ccccc3)[C@H]2SC1 [CEPHALEXIN ANHYDROUS]")
"Not Active"

Form: molecule = COCCCOc1ccnc(C[S+]([O-])c2nc3ccccc3[nH]2)c1C (stereo not given) [RABEPRAZOLE] ; IC50 = Not Active

Form: molecule = CC1(C)O[C@@H]2C[C@H]3[C@@H]4C[C@H](F)C5=CC(=O)C=C[C@]5(C)[C@@]4(F)[C@@H](O)C[C@]3(C)[C@]2(C(=O)CO)O1 [FLUOCINOLONE ACETONIDE] ; IC50 = Not Active

Form: molecule = C[C@H]1O[C@@H](O[C@H]2[C@@H](O)C[C@H](O[C@H]3[C@@H](O)C[C@H](O[C@H]4CC[C@@]5(C)[C@H](CC[C@@H]6[C@@H]5CC[C@]5(C)[C@@H](C7=CC(=O)OC7)CC[C@]65O)C4)O[C@@H]3C)O[C@@H]2C)C[C@H](O)[C@@H]1O [DIGITOXIN] ; IC50 = Not Active

Form: molecule = CC[C@@H](CO)NCCN[C@@H](CC)CO [ETHAMBUTOL] ; IC50 = Not Active

Form: molecule = CCc1c2c(nc3ccc(OC(=O)N4CCC(N5CCCCC5)CC4)cc13)-c1cc3c(c(=O)n1C2)COC(=O)[C@]3(O)CC [IRINOTECAN] ; IC50 = Not Active

====

assay: DRUGMATRIX: Phosphodiesterase PDE3 enzyme inhibition (substrate: [3H]cAMP + cAMP); format: tissue-based, Homo sapiens; conditions: platelet; Not Active = under 50% inhibition at 10 µM
Parameter Measured: Ki

>>> reading("CC(C)C[C@H](NC(=O)[C@@H](O)[C@H](N)Cc1ccccc1)C(=O)O")
"Not Active"
>>> reading("CCOC(=O)C(C)(C)Oc1ccc(Cl)cc1 [CLOFIBRATE]")
"Not Active"
>>> reading("S=C=Nc1cccc2ccccc12 [1-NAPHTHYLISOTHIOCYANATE]")
"Not Active"
>>> reading("Cc1cc(C)nc(NS(=O)(=O)c2ccc(N)cc2)n1")
"Not Active"

Form: molecule = [Cl-].[Cl-].[Zn+2] [ZINC CHLORIDE] ; Ki = Not Active

Form: molecule = "CCCCOc1ccc(OCCCN2CCOCC2)cc1" ; Ki = Not Active
